# study_system: GluN1–1a/2B (Rattus norvegicus, UniProt P35439+Q00960)
# Sequence (Q00960 27-1482, other chains not shown): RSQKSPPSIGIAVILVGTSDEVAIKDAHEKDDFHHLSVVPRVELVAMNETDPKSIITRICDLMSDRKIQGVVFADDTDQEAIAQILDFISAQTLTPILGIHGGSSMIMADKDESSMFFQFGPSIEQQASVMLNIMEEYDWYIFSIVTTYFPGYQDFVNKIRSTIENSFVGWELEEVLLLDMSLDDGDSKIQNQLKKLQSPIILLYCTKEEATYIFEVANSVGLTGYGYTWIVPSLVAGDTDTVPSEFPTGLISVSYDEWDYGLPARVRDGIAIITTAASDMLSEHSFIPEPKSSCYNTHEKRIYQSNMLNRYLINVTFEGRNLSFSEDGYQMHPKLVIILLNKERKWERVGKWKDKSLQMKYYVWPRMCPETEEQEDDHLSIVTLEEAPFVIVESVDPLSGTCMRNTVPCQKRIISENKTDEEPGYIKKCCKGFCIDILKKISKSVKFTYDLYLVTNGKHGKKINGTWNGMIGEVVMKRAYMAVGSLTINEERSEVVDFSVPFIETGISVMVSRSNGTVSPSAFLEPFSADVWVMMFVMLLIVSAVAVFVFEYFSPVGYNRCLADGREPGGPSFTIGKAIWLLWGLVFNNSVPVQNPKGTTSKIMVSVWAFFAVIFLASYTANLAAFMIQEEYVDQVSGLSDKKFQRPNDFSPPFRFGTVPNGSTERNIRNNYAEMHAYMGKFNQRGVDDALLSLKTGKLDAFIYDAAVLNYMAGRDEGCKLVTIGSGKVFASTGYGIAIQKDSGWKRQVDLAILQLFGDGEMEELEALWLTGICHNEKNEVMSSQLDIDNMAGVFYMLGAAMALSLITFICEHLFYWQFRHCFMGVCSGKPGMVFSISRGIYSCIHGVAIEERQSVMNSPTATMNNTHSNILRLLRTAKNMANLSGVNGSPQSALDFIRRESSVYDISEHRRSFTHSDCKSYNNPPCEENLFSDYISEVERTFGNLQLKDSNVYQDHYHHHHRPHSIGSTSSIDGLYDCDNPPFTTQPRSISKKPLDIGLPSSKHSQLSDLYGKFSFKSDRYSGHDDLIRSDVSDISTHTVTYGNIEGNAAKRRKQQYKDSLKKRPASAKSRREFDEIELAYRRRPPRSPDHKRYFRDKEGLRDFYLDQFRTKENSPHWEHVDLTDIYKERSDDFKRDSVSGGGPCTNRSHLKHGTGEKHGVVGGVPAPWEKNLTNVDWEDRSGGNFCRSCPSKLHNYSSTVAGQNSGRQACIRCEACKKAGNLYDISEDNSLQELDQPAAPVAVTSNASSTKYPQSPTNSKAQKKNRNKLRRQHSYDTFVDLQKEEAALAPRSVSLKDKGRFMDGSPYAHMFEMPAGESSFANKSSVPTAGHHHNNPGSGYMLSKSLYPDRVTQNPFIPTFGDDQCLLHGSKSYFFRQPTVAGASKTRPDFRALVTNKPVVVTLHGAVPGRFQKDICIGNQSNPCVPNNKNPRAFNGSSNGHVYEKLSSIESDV
# experiment_description: Two-electrode voltage-clamp recordings, Xenopus oocytes
# Format: cell-based
# reported_conditions: IC50, channel block; −20 mV; + 1 mM Mg2+
pIC50: −log10 of the molar value.
reported_endpoint: pIC50

- CNC1(c2ccccc2Cl)CCCCC1=O (stereo not shown) [ketamine]: 4.79

====

# study_system: GluN1–1a/2D (Rattus norvegicus, UniProt P35439+Q62645)
# Sequence (Q62645 28-1323, other chains not shown): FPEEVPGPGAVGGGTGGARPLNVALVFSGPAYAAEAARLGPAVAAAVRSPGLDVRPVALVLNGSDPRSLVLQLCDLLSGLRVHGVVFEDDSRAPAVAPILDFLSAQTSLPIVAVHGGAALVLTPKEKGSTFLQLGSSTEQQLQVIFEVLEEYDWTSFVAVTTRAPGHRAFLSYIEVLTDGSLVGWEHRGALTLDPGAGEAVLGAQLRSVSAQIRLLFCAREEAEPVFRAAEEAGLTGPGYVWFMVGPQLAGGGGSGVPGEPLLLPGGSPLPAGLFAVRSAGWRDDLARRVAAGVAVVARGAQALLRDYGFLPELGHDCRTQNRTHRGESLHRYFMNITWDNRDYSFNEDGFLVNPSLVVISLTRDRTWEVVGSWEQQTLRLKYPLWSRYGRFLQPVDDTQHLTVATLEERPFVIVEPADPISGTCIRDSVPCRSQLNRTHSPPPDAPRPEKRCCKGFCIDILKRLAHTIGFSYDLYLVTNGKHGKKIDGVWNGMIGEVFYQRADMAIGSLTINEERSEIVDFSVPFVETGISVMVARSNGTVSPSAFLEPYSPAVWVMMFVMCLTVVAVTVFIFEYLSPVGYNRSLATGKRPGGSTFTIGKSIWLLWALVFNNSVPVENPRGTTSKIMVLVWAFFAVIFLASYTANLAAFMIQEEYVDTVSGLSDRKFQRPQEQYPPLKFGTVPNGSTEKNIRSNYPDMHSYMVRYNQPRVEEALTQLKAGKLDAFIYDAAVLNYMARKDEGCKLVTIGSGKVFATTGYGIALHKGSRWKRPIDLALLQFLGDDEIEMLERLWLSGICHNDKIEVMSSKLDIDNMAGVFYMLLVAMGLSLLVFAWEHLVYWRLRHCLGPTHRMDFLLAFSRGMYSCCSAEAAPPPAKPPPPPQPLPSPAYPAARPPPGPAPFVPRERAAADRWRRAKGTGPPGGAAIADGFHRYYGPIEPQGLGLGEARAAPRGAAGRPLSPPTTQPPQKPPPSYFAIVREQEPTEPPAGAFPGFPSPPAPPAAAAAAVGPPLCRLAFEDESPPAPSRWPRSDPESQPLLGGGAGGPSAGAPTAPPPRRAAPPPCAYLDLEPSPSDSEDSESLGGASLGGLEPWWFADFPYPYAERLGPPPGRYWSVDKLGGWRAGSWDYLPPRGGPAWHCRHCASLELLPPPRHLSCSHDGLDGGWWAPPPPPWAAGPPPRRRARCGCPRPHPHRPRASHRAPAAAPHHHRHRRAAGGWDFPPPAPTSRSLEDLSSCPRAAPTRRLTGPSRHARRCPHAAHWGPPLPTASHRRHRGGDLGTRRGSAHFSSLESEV
# experiment_description: Two-electrode voltage-clamp recordings, Xenopus oocytes
# Format: cell-based
# reported_conditions: IC50, channel block; −40 mV; control (absence of Mg2+)
reported_endpoint: IC50

- CNC1(c2ccccc2Cl)CCCCC1=O (stereo not shown) [ketamine]: 2400 nM

====

# study_system: GluN1–1a/2D (Rattus norvegicus, UniProt P35439+Q62645)
# experiment_description: Two-electrode voltage-clamp recordings, Xenopus oocytes
# Type: cell-based
# reported_conditions: Mg2+ block; holding potential −80 mV
pIC50: −log10 of the molar value.
reported_endpoint: pIC50

• [Mg+2] = 4.14

====

# study_system: GluN1–1a/2BC1/2DC2 (Rattus norvegicus, UniProt P35439+Q00959+Q00960+Q62645, A876H/F846L/G856D/H848F/K857R/M851T/M860L/Q845K/R869K/V861L/V866F)
# experiment_description: Two-electrode voltage-clamp recordings, Xenopus oocytes
# Format: cell-based
# reported_conditions: isoform 1a
reported_endpoint: maximal inhibition

- Cc1nccn1Cc1cc(-c2ccc(F)c(C(F)F)c2)cnn1.Cl.Cl: ~ 65%
- C[C@@H]([C@@H](O)c1ccc(O)cc1)N1CCC(O)(c2ccccc2)CC1: ~ 65%
- COc1ccc2nc(/C=C/c3cccc([N+](=O)[O-])c3)n(-c3ccc(C(=O)O)cc3)c(=O)c2c1: ~ 100%
- CC(C(O)c1ccc(O)cc1)N1CCC(Cc2ccccc2)CC1 (centres unmarked): ~ 65%
- Cc1ccc2[nH]c(=O)c(C3=NN(C(=O)CCC(=O)O)C(c4ccc(Br)cc4)C3)c(-c3ccccc3)c2c1 (centres unmarked): ~ 100%

====

# study_system: GluN1–1a/2B (Rattus norvegicus, UniProt P35439+Q00960)
# experiment_description: Two-electrode voltage-clamp recordings, Xenopus oocytes
# Format: cell-based
# reported_conditions: IC50, channel block; −40 mV; + 1 mM Mg2+
reported_endpoint: IC50

- CNC1(c2ccccc2Cl)CCCCC1=O (stereo not shown): 19.2 µM

====

# study_system: GluN1–1a/2BC1/2DC2 (Rattus norvegicus, UniProt P35439+Q00959+Q00960+Q62645, A876H/F846L/G856D/H848F/K857R/M851T/M860L/Q845K/R869K/V861L/V866F)
# experiment_description: Two-electrode voltage-clamp recordings, Xenopus oocytes
# Assay type: cell-based
# reported_conditions: Mg2+ block; holding potential −80 mV
pIC50: −log10 of the molar value.
reported_endpoint: pIC50

- [Mg+2]: 4.70

====

# study_system: GluN1–1a/2B (Rattus norvegicus, UniProt P35439+Q00960)
# experiment_description: Two-electrode voltage-clamp recordings, Xenopus oocytes
# Format: cell-based
# reported_conditions: IC50, channel block; −60 mV; control (absence of Mg2+)
pIC50: −log10 of the molar value.
reported_endpoint: pIC50

* CNC1(c2ccccc2Cl)CCCCC1=O (stereo not shown) [ketamine] | 6.00

====

# study_system: GluN1–1a/2D (Rattus norvegicus, UniProt P35439+Q62645)
# experiment_description: Two-electrode voltage-clamp recordings, Xenopus oocytes
# Assay type: cell-based
# reported_conditions: Mg2+ block; holding potential −100 mV
pIC50: −log10 of the molar value.
reported_endpoint: pIC50

• [Mg+2] [Mg^2+] = 4.60

====

# study_system: GluN1–1a/2D (Rattus norvegicus, UniProt P35439+Q62645)
# experiment_description: Two-electrode voltage-clamp recordings, Xenopus oocytes
# Type: cell-based
# reported_conditions: IC50, channel block; −40 mV; + 1 mM Mg2+
reported_endpoint: IC50 (µM)

• CNC1(c2ccccc2Cl)CCCCC1=O (stereo not shown) [ketamine] = 3.5

====

# study_system: GluN1–1a/2B (Rattus norvegicus, UniProt P35439+Q00960)
# experiment_description: Two-electrode voltage-clamp recordings, Xenopus oocytes
# Assay type: cell-based
# reported_conditions: Mg2+ block; holding potential −80 mV
pIC50: −log10 of the molar value.
reported_endpoint: pIC50

* [Mg+2] | 5.26

====

# study_system: GluN1–1a/2B (Rattus norvegicus, UniProt P35439+Q00960)
# experiment_description: Two-electrode voltage-clamp recordings, Xenopus oocytes
# Type: cell-based
# reported_conditions: IC50, channel block; −60 mV; + 1 mM Mg2+
pIC50: −log10 of the molar value.
reported_endpoint: pIC50

* CNC1(c2ccccc2Cl)CCCCC1=O (stereo not shown) | 4.77

====

# study_system: GluN1–1a/2D (Rattus norvegicus, UniProt P35439+Q62645)
# experiment_description: Two-electrode voltage-clamp recordings, Xenopus oocytes
# Format: cell-based
# reported_conditions: Mg2+ block; holding potential −60 mV
reported_endpoint: IC50 (µM)

* [Mg+2] [Mg^2+] | 254

====

# study_system: GluN1–1a/2D (Rattus norvegicus, UniProt P35439+Q62645)
# experiment_description: Two-electrode voltage-clamp recordings, Xenopus oocytes
# Type: cell-based
# reported_conditions: IC50, channel block; −20 mV; control (absence of Mg2+)
pIC50: −log10 of the molar value.
reported_endpoint: pIC50

* CNC1(c2ccccc2Cl)CCCCC1=O (stereo not shown) | 5.42

====

# study_system: GluN1–1a/2B (Rattus norvegicus, UniProt P35439+Q00960)
# experiment_description: Two-electrode voltage-clamp recordings, Xenopus oocytes
# Assay type: cell-based
# reported_conditions: Mg2+ block; holding potential −40 mV
reported_endpoint: IC50

• [Mg+2] = 161 µM

====

compounds and their reported nH (Hill coefficient)
# study_system: GluN1–1a/2BC1/2DC2 (Rattus norvegicus, UniProt P35439+Q00959+Q00960+Q62645, A876H/F846L/G856D/H848F/K857R/M851T/M860L/Q845K/R869K/V861L/V866F)
# experiment_description: Two-electrode voltage-clamp recordings, Xenopus oocytes
# Format: cell-based
# reported_conditions: inhibition, isoform 1a
reported_endpoint: nH (Hill coefficient)

* Cc1ccc2[nH]c(=O)c(C3=NN(C(=O)CCC(=O)O)C(c4ccc(Br)cc4)C3)c(-c3ccccc3)c2c1 (centres unmarked) | 0.8
* C[C@@H]([C@@H](O)c1ccc(O)cc1)N1CCC(O)(c2ccccc2)CC1 | 1.4
* Cc1nccn1Cc1cc(-c2ccc(F)c(C(F)F)c2)cnn1.Cl.Cl | 1.1
* COc1ccc2nc(/C=C/c3cccc([N+](=O)[O-])c3)n(-c3ccc(C(=O)O)cc3)c(=O)c2c1 | 1.0
* CC(C(O)c1ccc(O)cc1)N1CCC(Cc2ccccc2)CC1 (centres unmarked) | 1.1

====

# study_system: GluN1–1a/2D (Rattus norvegicus, UniProt P35439+Q62645)
# experiment_description: Two-electrode voltage-clamp recordings, Xenopus oocytes
# Format: cell-based
# reported_conditions: IC50, channel block; −60 mV; + 1 mM Mg2+
reported_endpoint: IC50 (nM)

• CNC1(c2ccccc2Cl)CCCCC1=O (stereo not shown) [ketamine] = 2600

====

# study_system: GluN1–1a/2B (Rattus norvegicus, UniProt P35439+Q00960)
# experiment_description: Two-electrode voltage-clamp recordings, Xenopus oocytes
# Type: cell-based
# reported_conditions: IC50, channel block; −40 mV; control (absence of Mg2+)
reported_endpoint: IC50 (nM)

• CNC1(c2ccccc2Cl)CCCCC1=O (stereo not shown) = 2100

====

# study_system: GluN1–1a/2D (Rattus norvegicus, UniProt P35439+Q62645)
# experiment_description: Two-electrode voltage-clamp recordings, Xenopus oocytes
# reported_conditions: GluN1 isoform 1a; glutamate with 100 μM glycine, glycine with 300 μM glutamate
pEC50: −log10 of the molar value.
reported_endpoint: pEC50

• N[C@@H](CCC(=O)O)C(=O)O [glutamate] = 6.57

====

# study_system: GluN1–1a/2B (Rattus norvegicus, UniProt P35439+Q00960)
# experiment_description: Two-electrode voltage-clamp recordings, Xenopus oocytes
# Format: cell-based
# reported_conditions: isoform 1a; 300 μM glutamate plus 100 μM glycine
reported_endpoint: IC50 (nM)

• Cc1nccn1Cc1cc(-c2ccc(F)c(C(F)F)c2)cnn1.Cl.Cl = 9

====

# study_system: GluN1–1a/2B (Rattus norvegicus, UniProt P35439+Q00960)
# experiment_description: Two-electrode voltage-clamp recordings, Xenopus oocytes
# Format: cell-based
# reported_conditions: IC50, channel block; −20 mV; control (absence of Mg2+)
reported_endpoint: IC50 (µM)

- CNC1(c2ccccc2Cl)CCCCC1=O (stereo not shown) [ketamine]: 4.2
